- target.or.test.system: hP2X3 (Homo sapiens, UniProt P56373)
- Construct: host or cells: 1321N1
- Sequence (P56373 whole entry): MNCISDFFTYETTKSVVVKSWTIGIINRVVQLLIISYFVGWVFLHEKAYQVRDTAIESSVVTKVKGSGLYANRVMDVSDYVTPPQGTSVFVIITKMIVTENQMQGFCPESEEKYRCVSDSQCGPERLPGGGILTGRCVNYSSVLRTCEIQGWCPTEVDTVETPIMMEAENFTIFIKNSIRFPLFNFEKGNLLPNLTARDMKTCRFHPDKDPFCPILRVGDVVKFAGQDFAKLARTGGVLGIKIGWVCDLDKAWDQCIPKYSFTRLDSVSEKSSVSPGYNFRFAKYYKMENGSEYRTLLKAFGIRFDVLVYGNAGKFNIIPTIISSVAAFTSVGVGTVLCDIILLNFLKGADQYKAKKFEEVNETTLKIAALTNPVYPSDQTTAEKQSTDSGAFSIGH
- assay: FLIPR assay, antagonistic activity against hP2X3 receptor
- Type: cell-based
- stated.conditions: 1321N1/hP2X3 cells, FLIPR Calcium 4, agonist 3000 nM; read-out: P2X3 (IC50/nM)
Please go through the items and note down their IC50.
Give just the number in nM; leave the unit off.

Query :: Which IC50 value is on record for O=C(O)[C@@H]1C[C@H]1Cn1c(=O)[nH]c(=Nc2ccc(Oc3ccc(F)cn3)cc2)n(Cc2ccc(Cl)cc2)c1=O [Compound H5-P2] ?
Result :: 106

Query :: Note, next up: O=C(O)[C@@H]1C[C@H]1Cn1c(=O)[nH]/c(=N\c2ccc(Oc3cccc(F)n3)cc2)n(Cc2ccc(Cl)cc2)c1=O (racemic)
Result :: 73

Query :: Subsequent entry: O=C(O)[C@H]1C[C@@H]1Cn1c(=O)[nH]/c(=N\c2ccc(Oc3ccc(F)cn3)cc2)n(Cc2ccc(Cl)cc2)c1=O [Compound H5-P1]
Result :: 23

Query :: Repeat with O=C(O)[C@@H]1C[C@H]1Cn1c(=O)[nH]/c(=N\c2ccc(Oc3ncccc3F)cc2)n(Cc2ccc(Cl)cc2)c1=O (racemic)
Result :: 148

Where do these numbers come from? They come from patent US12630525B2.
